- ASSAY_TEXT: Sensory test: degree of change in smell after standing at 30° C. for 3 months;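 note: double circle means no smell deterioration on a four-grade scale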
- Format: physicochemical
- TEST_SETTINGS: Table III; 0.1% in hair tonic, 30° C., 3 months
ATTRIBUTE_MEASURED: Stability S.E. (Sensory Evaluation)

given_smiles=Nc1ncnc2c1nc(F)n2[C@@H]1O[C@@H]2COP(=O)(O)O[C@H]2[C@H]1O value_reported=.circleincircle.
given_smiles=Nc1ncnc2c1nc(SCc1ccccc1)n2[C@@H]1O[C@@H]2COP(=O)(O)O[C@H]2[C@H]1O value_reported=.circleincircle.
given_smiles=Cn1cnc2c(ncn2[C@@H]2O[C@@H]3COP(=O)(O)O[C@H]3[C@H]2O)c1=N value_reported=.circleincircle.
given_smiles=O=P1(O)OC[C@H]2O[C@@H](n3cnc4c3ncn3ccnc43)[C@H](O)[C@@H]2O1 value_reported=.circleincircle.
given_smiles=Nc1ncnc2c1nc(Sc1ccccc1)n2[C@@H]1O[C@@H]2COP(=O)(O)O[C@H]2[C@H]1O value_reported=.circleincircle.
given_smiles=COc1nc2c(N)ncnc2n1[C@@H]1O[C@@H]2COP(=O)(O)O[C@H]2[C@H]1O value_reported=.circleincircle.
given_smiles=CSc1nc2c(N)ncnc2n1[C@@H]1O[C@@H]2COP(=O)(O)O[C@H]2[C@H]1O value_reported=.circleincircle.
